Please respond with reported IC50 for every item in the list.
# System tested: Hormone-sensitive lipase (Rattus norvegicus)
# Assay: Inhibition of HSL in Wistar rat isolated fat cells by spectrophotometric assay

// worked examples, IC50 included
| Molecule | System tested | IC50 |
| --- | --- | --- |
| CCOCCc1c(C)n(C(=O)N2CCC(C)CC2)oc1=O | Hormone-sensitive lipase (Rattus norvegicus) | 3 nM |
| Cc1c(C(C)C)c(=O)on1C(=O)N1CCNCC1 | Hormone-sensitive lipase (Rattus norvegicus) | > 1000 nM |
| Cc1c(C(C)C)c(=O)on1C(=O)N1CCCCC1 | Hormone-sensitive lipase (Rattus norvegicus) | 2 nM |

# per-item lookup of IC50; items listed below
1. CSc1nc(-c2ccc(Cl)cc2)nn1C(=O)N1CCCCC1
2. CSc1nc(-c2cccc3ccccc23)nn1C(=O)N(C)C
3. Cc1c(C(C)C)c(=O)on1C(=O)N1CCC(c2ccc(C(F)(F)F)cc2)CC1
4. COCCc1c(C)n(C(=O)N2CCC(c3cccc(F)c3)CC2)oc1=O
5. Cc1c(C2CCOCC2)c(=O)on1C(=O)N1CCCCC1

1: 1.76 nM; 2: 35.3 nM; 3: 160 nM; 4: 20 nM; 5: 71 nM

====

# System tested: UniProtKB P15304
# Assay: Inhibition of HSL in Wistar rat isolated fat cells by spectrophotometric assay
Mark class 1 only for IC50 values smaller than 10 nM; exact matches and larger values are class 0.

Take a look at these entries with their results.
| Compound | Group |
| --- | --- |
| CCOC(=O)C1CCCN(C(=O)n2oc(=O)c(C(C)C)c2C)C1 (stereo not given) | class 0 |
| CCSc1nc(-c2ccc(OC)cc2)nn1C(=O)N1CCOCC1 | class 0 |
| CCSc1nc(-c2ccc(Cl)cc2)nn1C(=O)N(C)C | class 1 |

Continue with the compound presented below.
Answer whether the compound `Cc1c(C(C)C)c(=O)on1C(=O)N1CCC(c2cccc(F)c2)CC1` has IC50 strictly less than 10 nM
class 0

====

# System tested: Hormone-sensitive lipase (Rattus norvegicus)
# Assay: Inhibition of HSL in Wistar rat isolated fat cells by spectrophotometric assay
Please respond with reported pIC50 for every item in the list.
Answers are plain numbers, as −log10 of the molar value.

// worked examples, pIC50 included
| Compound | pIC50 |
| --- | --- |
| CSc1nc(-c2ccc(OC(F)(F)F)cc2)nn1C(=O)N(C)C | 8.75 |
| Cc1c(C(C)C)c(=O)on1C(=O)N1CCCCCC1 | 7.21 |
| CCCSc1nc(-c2ccc(Cl)cc2)nn1C(=O)N(C)C | 8.97 |

# per-item lookup of pIC50; items listed below
1. CSc1nc(-c2ccc(Cl)cc2)nn1C(=O)N(C)C
2. Cc1c(C(C)C)c(=O)on1C(=O)N(C)c1ccc(Cl)cc1
3. Cc1c(C(C)C)c(=O)on1C(=O)N(C)Cc1cccc(F)c1
4. O=C(N1CCCCC1)n1nc(-c2ccc(Cl)cc2)nc1SCC1CC1
5. Cc1c(Cc2ccccc2)c(=O)on1C(=O)N1CCCCC1
6. Cc1c(Cc2cc3ccccc3n2C)c(=O)on1C(=O)N1CCCCC1
7. COc1cccc(CSC(C(=O)O)c2ccccc2)c1 (stereo not given)

1: 9.45; 2: 7.77; 3: 8.30; 4: 8.45; 5: 8.30; 6: 7.77; 7: 6.29

====

# System tested: UniProtKB P15304
# Assay: Inhibition of HSL in Wistar rat isolated fat cells by spectrophotometric assay
Property name: pIC50
Give bare numbers, as −log10 of the molar value.

| Compound | pIC50 |
| --- | --- |
| Cc1c(C(C)C)c(=O)on1C(=O)N1CCC(=O)CC1 | 6.70 |

# per-item lookup of pIC50; items listed below
1. Cc1c(C(C)C)c(=O)on1C(=O)N(C)Cc1ccccc1F
2. O=C(N1CCCCC1)n1nc(-c2ccc(Cl)cc2)nc1SCC(F)(F)F
3. Cc1c(CC(C)C)c(=O)on1C(=O)N1CCC(c2ccccc2)CC1

8.40
8.15
8.00

# per-item lookup of pIC50; items listed below
1. Cc1c(Sc2ccc(Cl)cc2)c(=O)on1C(=O)N1CCCCC1
2. Cc1c(C(C)C)c(=O)on1C(=O)N1CCC[C@H](C)C1
3. Cc1c(C(C)C)c(=O)on1C(=O)N1CCC(O)CC1
4. CCSCc1ccccc1OC(=O)NC [ETHIOFENCARB]

1. 8.22
2. 8.52
3. 6.78
4. 6.43

# per-item lookup of pIC50; items listed below
1. CCCCc1c(C)n(C(=O)N2CCCCC2)oc1=O
2. O=C(OCc1ccccc1)c1ccccc1 [BENZYL BENZOATE]

[8.15, 5.96]

====

# System tested: Hormone-sensitive lipase (Rattus norvegicus)
# Assay: Inhibition of HSL in Wistar rat isolated fat cells by spectrophotometric assay
Please respond with reported IC50 for every item in the list.
Answers are plain numbers, in nM.

# per-item lookup of IC50; items listed below
1. CCSc1nc(-c2ccc(OC)cc2)nn1C(=O)N(C)c1ccccc1
2. CSc1nc(/C=C/c2ccccc2)nn1C(=O)N(C)C
3. Cc1c(C(C)C)c(=O)on1C(=O)N1CCC(c2ccc(C(C)(C)C)cc2)CC1
4. CCCCc1c(C)n(C(=O)N2CCC(C)CC2)oc1=O
5. Cc1c(C(C)C)c(=O)on1C(=O)N(C)c1ccccn1
6. Cc1c(C(C)C)c(=O)on1C(=O)N1CCN(c2ccccc2Cl)CC1
7. Cc1ccc(CN(C)C(=O)n2oc(=O)c(C(C)C)c2C)cc1
8. Cc1ccc(-c2nc(SCc3ccccc3)[nH]c(=O)c2CCO)cc1

1. 5.29
2. 882
3. 480
4. 1
5. 240
6. 30
7. 408
8. 2980

====

Please respond with reported pIC50 for every item in the list.
# System tested: Hormone-sensitive lipase (Rattus norvegicus)
# Assay: Inhibition of HSL in Wistar rat isolated fat cells by spectrophotometric assay
Answers are plain numbers, as −log10 of the molar value.

// worked examples, pIC50 included
| Entry smiles | pIC50 |
| --- | --- |
| Cc1c(CCOc2ccccc2)c(=O)on1C(=O)N1CCCCC1 | 8.40 |
| CSc1nc(-c2ccc(C)cc2)nn1C(=O)N(C)C | 9.28 |

# per-item lookup of pIC50; items listed below
1. Cc1c(C(C)C)c(=O)on1C(=O)N1CCC(C(=O)c2ccccc2)CC1
2. COCCc1c(C)n(C(=O)N2CCC(c3ccccc3)CC2)oc1=O

1: 6.60; 2: 7.96

====

# System tested: Hormone-sensitive lipase (Rattus norvegicus, UniProt P15304)
# Sequence (P15304 whole entry): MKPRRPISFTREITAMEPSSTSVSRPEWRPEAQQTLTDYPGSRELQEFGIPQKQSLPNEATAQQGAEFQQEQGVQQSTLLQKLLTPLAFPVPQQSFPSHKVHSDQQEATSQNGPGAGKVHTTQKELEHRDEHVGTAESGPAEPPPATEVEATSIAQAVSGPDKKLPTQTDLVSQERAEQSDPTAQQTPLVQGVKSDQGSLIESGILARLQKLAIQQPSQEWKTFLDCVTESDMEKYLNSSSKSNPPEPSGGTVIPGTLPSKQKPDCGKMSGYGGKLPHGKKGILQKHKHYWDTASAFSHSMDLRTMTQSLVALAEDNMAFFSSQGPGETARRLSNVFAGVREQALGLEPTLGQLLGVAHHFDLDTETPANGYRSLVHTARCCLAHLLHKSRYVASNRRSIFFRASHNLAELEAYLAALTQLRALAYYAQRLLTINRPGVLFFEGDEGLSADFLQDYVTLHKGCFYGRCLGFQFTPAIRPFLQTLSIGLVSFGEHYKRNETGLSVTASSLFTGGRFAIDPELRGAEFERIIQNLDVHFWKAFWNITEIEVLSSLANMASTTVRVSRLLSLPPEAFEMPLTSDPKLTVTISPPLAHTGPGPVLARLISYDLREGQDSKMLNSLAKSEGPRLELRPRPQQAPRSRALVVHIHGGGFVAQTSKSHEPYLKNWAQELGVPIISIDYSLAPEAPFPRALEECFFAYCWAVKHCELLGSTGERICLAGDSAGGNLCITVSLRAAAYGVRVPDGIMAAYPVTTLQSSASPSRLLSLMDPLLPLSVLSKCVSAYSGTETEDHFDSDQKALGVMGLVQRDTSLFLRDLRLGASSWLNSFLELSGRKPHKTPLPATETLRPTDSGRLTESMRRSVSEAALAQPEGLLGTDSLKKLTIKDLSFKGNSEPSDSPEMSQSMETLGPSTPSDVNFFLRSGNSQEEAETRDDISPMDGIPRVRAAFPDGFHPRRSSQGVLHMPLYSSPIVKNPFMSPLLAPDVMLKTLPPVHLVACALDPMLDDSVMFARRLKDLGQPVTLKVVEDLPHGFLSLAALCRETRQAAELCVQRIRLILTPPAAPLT
# Assay: Inhibition of HSL in Wistar rat isolated fat cells by spectrophotometric assay
Property name: pIC50
Numbers only, as −log10 of the molar value.

| Entry smiles | Quantitative readout |
| --- | --- |
| Cc1ccc(C2CCN(C(=O)n3oc(=O)c(C(C)C)c3C)CC2)cc1 | 7.43 |
| COCCc1c(C)n(C(=O)N2CCC(c3cccc(C)c3)CC2)oc1=O | 7.64 |
| CSc1nc(-c2ccc(C)cc2)nn1C(=O)N1CCOCC1 | 7.15 |

Provide pIC50, tested on Hormone-sensitive lipase (Rattus norvegicus, UniProt P15304), for `COC(=O)c1cc(Oc2ccc(Cl)cc2Cl)ccc1[N+](=O)[O-]` .
6.37
